Species: Mus musculus
Assay Info: Selectivity ratio of ED50 for 5-HT reuptake in mouse to ED50 for norepinephrine reuptake in mouse
Format: functional

Compound	Ratio ED50
CNCCC(Oc1ccc(C(F)(F)F)cc1)c1ccccc1 (centres undefined)	<0.39
CN(C)CCCN1c2ccccc2CCc2ccc(Cl)cc21	0.35
CN1C2CCC1CC(Oc1ccc(C(F)(F)F)cc1)(c1ccccc1)C2 (centres undefined)	0.29
CN1C2CCC1CC(Oc1ccc(Cl)cc1)(c1ccccc1)C2 (centres undefined)	0.29

* * *

Tested on: Mus musculus
Assay Info: Inhibition of NET-mediated norepinephrine-reuptake assessed as yohimbine induced mortality in mouse at 6.47 mM/kg, ip after 24 hrs
Format: functional
Design: scale not given: the % may be the effect or the level left
// label = True if Activity is not less than 20%, otherwise False

Compound	Qualitative Label
CN1C2CCC1CC(Oc1ccc([N+](=O)[O-])cc1)(c1ccccc1)C2 (centres undefined)	True
CN1C2CCC1CC(Oc1ccc(Br)cc1)(c1ccccc1)C2 (centres undefined)	False
CNCCC(Oc1ccc(C(F)(F)F)cc1)c1ccccc1 (centres undefined)	False
CN(C)CCCC1(c2ccc(F)cc2)OCc2cc(C#N)ccc21 (centres undefined)	False
CN1C2CCC1CC(Oc1ccc(C#N)cc1)(c1ccc(F)cc1)C2 (centres undefined)	True
CN1C2CCC1CC(Oc1ccc(C#N)cc1)(c1ccccc1)C2 (centres undefined)	True
CN1C2CCC1CC(Oc1cccc(C(F)(F)F)c1)(c1ccccc1)C2 (centres undefined)	False
CN1C2CCC1CC(Oc1ccc(C(F)(F)F)cc1)(c1ccccc1)C2 (centres undefined)	False
CN1C2CCC1CC(Oc1ccc(Cl)cc1)(c1ccccc1)C2 (centres undefined)	True
